# protocol.details: In vitro metabolic stability in mouse liver homogenate at 37° C.
# Format: in vitro ADME
# setup.conditions: female, Tac:NCr:Foxn1nu/nu, mouse, tissue homogenate, pH 7.2
Residues, ends and D or L forms follow the SMILES beside them.
measured.metric: remaining at 1 h, 0.3 mg/mL (%)
Unit % implied. Number only.

The molecule listed as N=C(N)NCCC[C@@H](NC(=O)[C@H](Cc1c[nH]cn1)NC(=O)[C@H](CO)NC(=O)[C@H](Cc1c[nH]c2ccccc12)NC(=O)[C@H](Cc1c[nH]cn1)NC(=O)[C@@H]1CCC(=O)N1)C(=O)N[C@@H](Cc1c[nH]c2ccccc12)C(=O)N[C@@H](Cc1ccc(O)cc1)C(=O)N1CSC[C@H]1C(=O)NNC(N)=O [BRU-3124] (HELM PEPTIDE1{[Glp].H.W.S.H.[dR].W.Y.[O=C([C@@H]1CSCN1[*:1])[*:2]].[O=C(NN[*:1])[*:2]].[am]}$$$$V2.0) shows remaining at 1 h, 0.3 mg/mL equal to 38.7
